Origin of values: ChEMBL document CHEMBL2401700

molecular target: 5-hydroxytryptamine receptor 7 (Homo sapiens); test: Binding affinity to human serotonin 5-HT7 receptor
Sequence (P34969 whole entry): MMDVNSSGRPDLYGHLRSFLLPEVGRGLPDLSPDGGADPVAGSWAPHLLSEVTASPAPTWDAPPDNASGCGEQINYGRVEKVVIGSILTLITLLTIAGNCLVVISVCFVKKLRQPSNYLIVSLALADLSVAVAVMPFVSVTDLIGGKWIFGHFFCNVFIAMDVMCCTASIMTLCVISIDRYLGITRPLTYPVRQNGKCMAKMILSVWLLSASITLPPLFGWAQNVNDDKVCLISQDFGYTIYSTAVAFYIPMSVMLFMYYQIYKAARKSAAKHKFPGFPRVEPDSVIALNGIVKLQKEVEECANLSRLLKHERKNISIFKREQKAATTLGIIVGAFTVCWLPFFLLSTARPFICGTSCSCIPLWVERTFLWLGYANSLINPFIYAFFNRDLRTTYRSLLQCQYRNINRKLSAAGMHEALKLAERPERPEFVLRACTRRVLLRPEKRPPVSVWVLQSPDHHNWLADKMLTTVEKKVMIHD
Measured endpoint: pKi
Give bare numbers, as −log10 of the molar value.

Tell me its pKi given COc1cc(N)c(Cl)cc1C(=O)NC1CCN(CCCOc2ccc(F)cc2)CC1OC (racemic) [CISAPRIDE] as the entry.
6.00

* * *

So I've got a bunch of compounds here, and I need their Ki values.
Molecular target: 5-hydroxytryptamine receptor 3A (Homo sapiens, UniProt P46098)
Sequence (P46098 whole entry): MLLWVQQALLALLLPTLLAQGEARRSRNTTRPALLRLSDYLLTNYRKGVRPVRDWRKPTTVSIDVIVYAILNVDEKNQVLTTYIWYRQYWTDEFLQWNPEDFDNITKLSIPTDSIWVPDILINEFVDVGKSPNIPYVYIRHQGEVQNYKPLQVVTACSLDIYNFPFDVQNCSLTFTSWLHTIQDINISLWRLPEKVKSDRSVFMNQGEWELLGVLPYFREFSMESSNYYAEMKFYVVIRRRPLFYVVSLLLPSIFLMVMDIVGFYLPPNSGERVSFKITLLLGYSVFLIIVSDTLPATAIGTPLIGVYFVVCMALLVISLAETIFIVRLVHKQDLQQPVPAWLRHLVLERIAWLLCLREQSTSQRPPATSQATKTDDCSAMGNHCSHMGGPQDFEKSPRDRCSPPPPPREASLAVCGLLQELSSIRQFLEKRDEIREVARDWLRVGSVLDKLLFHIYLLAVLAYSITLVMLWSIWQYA
Assay: Binding affinity to human recombinant 5HT3 receptor
Give bare numbers, in µM.

Some solved entries appear below for comparison.
Compound | Ki [µM]
CC(C)(C)c1nc2cccc(C(=O)NCC3CCN(CC(O)CN4CCN(S(C)(=O)=O)CC4)CC3)c2[nH]1 (configuration not stated) | 39.8
CC(=O)N1CCN(CCN2CCC(CNC(=O)c3cccc4nc(C(C)C)[nH]c34)CC2)CC1 | 39.8
CC(C)c1nc2c(C(=O)NCC3CCN(CC(O)CN4CCN(S(C)(=O)=O)CC4)CC3)cc(Cl)cc2[nH]1 (configuration not stated) | 1.26
CCCCCNC(=N)N/N=C/c1c[nH]c2ccc(OC)cc12 | 2.51
CS(=O)(=O)N1CCN(CC(O)CN2CCC(CNC(=O)c3cccc4[nH]c(C5CC5)nc34)CC2)CC1 (configuration not stated) | 50.1

For each of the compounds below, state Ki.
1. CC(F)(F)c1nc2cccc(C(=O)NCC3CCN(CC(O)CN4CCN(S(C)(=O)=O)CC4)CC3)c2[nH]1 (configuration not stated)
2. COC(=O)N1CCN(CCN2CCC(CNC(=O)c3cccc4[nH]c(C(C)C)nc34)CC2)CC1

7.94
79.4

* * *

So I've got a bunch of compounds here, and I need their half-life values.
experiment: Half life in rat liver micrososmes; format: ADME, Microsome; conditions: liver microsomes

Compound | Experimental value
COC(=O)N(C)CC(O)CN1CCC(CNC(=O)c2cccc3nc(C(C)C)[nH]c23)CC1 (stereo not drawn) | 1.32 h
CC(C)c1nc2c(C(=O)NCC3CCN(CC(O)CN4CCN(S(C)(=O)=O)CC4)CC3)cccc2[nH]1 (stereo not drawn) | > 1.5 h
CC(C)(C)c1nc2cccc(C(=O)NCC3CCN(CC(O)CN4CCN(S(C)(=O)=O)CC4)CC3)c2[nH]1 (stereo not drawn) | > 1.5 h
CC(C)c1nc2c(C(=O)NCC3CCN(CC4CCN(S(C)(=O)=O)CC4)CC3)cccc2[nH]1 | 1.47 h
CS(=O)(=O)N1CCN(CC(O)CN2CCC(CNC(=O)c3cccc4[nH]c(C5CC5)nc34)CC2)CC1 (stereo not drawn) | > 1.5 h

For each of the compounds below, state half-life.
1. COc1cc(N)c(Cl)cc1C(=O)NC1CCN(CCCOc2ccc(F)cc2)CC1OC (racemic) [CISAPRIDE]
2. CC(=O)N(C)CC(O)CN1CCC(CNC(=O)c2cccc3nc(C(C)C)[nH]c23)CC1 (stereo not drawn)
3. CC(C)c1nc2c(C(=O)NCC3CCN(CCN4CCN(S(C)(=O)=O)CC4)CC3)cccc2[nH]1

["0.783 h", "> 1.5 h", "> 1.5 h"]

* * *

So I've got a bunch of compounds here, and I need their pEC50 values.
target: UniProtKB Q13639; assay: Agonist activity at human recombinant 5HT4 receptor assessed as cAMP accumulation
Answers are plain numbers, as −log10 of the molar value.

Some solved entries appear below for comparison.
Compound | Experimental value
CC(C)c1nc2c(C(=O)NCC3CCN(CCN4CCN(S(C)(=O)=O)CC4)CC3)cccc2[nH]1 | 9.10
CS(=O)(=O)N1CCN(CC(O)CN2CCC(CNC(=O)c3cccc4[nH]c(C5CC5)nc34)CC2)CC1 (stereo not drawn) | 9.20
CS(=O)(=O)N1CCN(CC(O)CN2CCC(CNC(=O)c3cccc4[nH]c(-c5ccccc5)nc34)CC2)CC1 (stereo not drawn) | 8.80
CC(=O)N1CCN(CCN2CCC(CNC(=O)c3cccc4nc(C(C)C)[nH]c34)CC2)CC1 | 8.50
CS(=O)(=O)N1CCN(CC(O)CN2[C@@H]3CC[C@H]2C[C@@H](NC(=O)c2cccc4nc[nH]c24)C3)CC1 (stereo partly drawn) | 6.60

For each of the compounds below, state pEC50.
1. CC(C)c1nc2c(C(=O)NCC3CCN(CC(O)CN4CCN(S(C)(=O)=O)CC4)CC3)cccc2[nH]1 (stereo not drawn)
2. CC(C)(C)c1nc2cccc(C(=O)NCC3CCN(CC(O)CN4CCN(S(C)(=O)=O)CC4)CC3)c2[nH]1 (stereo not drawn)
3. CS(=O)(=O)N1CCN(CC(O)CN2CCC(CNC(=O)c3cccc4nc[nH]c34)CC2)CC1 (stereo not drawn)

1. 9.20
2. 8.50
3. 8.00

* * *

test: Permeability across human Caco2 cells; assay type: ADME, cell-based; details: Caco-2, read-out: Kp
So I've got a bunch of compounds here, and I need their Papp values.
One number for each entry, in nm/s.

Some solved entries appear below for comparison.
Compound | Endpoint unit | Papp
CS(=O)(=O)N1CCN(CC(O)CN2CCC(CNC(=O)c3cccc4[nH]c(C5CC5)nc34)CC2)CC1 (stereo not given) | nm/s | 21
CC(C)(C)c1nc2cccc(C(=O)NCC3CCN(CC(O)CN4CCN(S(C)(=O)=O)CC4)CC3)c2[nH]1 (stereo not given) | nm/s | 5
CC(C)c1nc2cccc(C(=O)NCC3CCN(CC(O)CN(C)S(C)(=O)=O)CC3)c2[nH]1 (stereo not given) | nm/s | 10
CC(C)c1nc2c(C(=O)NCC3CCN(CC(O)CN4CCN(S(C)(=O)=O)CC4)CC3)cccc2[nH]1 (stereo not given) | nm/s | 2
COC(=O)N1CCC(CN2CCC(CNC(=O)c3cccc4[nH]c(C(C)C)nc34)CC2)CC1 | nm/s | 540
COC(=O)N1CCN(CCN2CCC(CNC(=O)c3cccc4[nH]c(C(C)C)nc34)CC2)CC1 | nm/s | 90
COC(=O)N(C)CC(O)CN1CCC(CNC(=O)c2cccc3nc(C(C)C)[nH]c23)CC1 (stereo not given) | nm/s | 20
CC(C)c1nc2c(C(=O)NCC3CCN(CCN4CCN(S(C)(=O)=O)CC4)CC3)cccc2[nH]1 | nm/s | 40
CC(=O)N1CCC(CN2CCC(CNC(=O)c3cccc4[nH]c(C(C)C)nc34)CC2)CC1 | nm/s | 60

// moving on: another record for Papp
Tell me its Papp given CC(C)c1nc2c(C(=O)NCC3CCN(CC4CCN(S(C)(=O)=O)CC4)CC3)cccc2[nH]1 as the entry.
50

* * *

target: 5-hydroxytryptamine receptor 2B (Homo sapiens, UniProt P41595)
Sequence (P41595 whole entry): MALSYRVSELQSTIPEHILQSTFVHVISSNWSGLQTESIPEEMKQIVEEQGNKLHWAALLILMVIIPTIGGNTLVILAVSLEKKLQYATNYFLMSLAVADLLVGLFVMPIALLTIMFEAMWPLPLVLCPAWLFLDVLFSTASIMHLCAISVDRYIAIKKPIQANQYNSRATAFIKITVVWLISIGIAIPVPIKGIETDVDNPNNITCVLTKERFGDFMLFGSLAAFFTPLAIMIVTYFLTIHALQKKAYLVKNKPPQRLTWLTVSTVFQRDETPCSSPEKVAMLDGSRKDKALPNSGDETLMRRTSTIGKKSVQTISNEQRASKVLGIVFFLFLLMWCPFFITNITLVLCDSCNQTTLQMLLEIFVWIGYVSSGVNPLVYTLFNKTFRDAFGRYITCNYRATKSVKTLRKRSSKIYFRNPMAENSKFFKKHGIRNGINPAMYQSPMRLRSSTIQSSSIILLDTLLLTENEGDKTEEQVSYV
pKi: −log10 of the molar value.
Measured endpoint: pKi

Tell me its pKi given CCCCCNC(=N)N/N=C/c1c[nH]c2ccc(OC)cc12 as the entry.
> 8.70

* * *

assay: Half life in beagle dog at 2 mg/kg, po; format: ADME, organism-based, Canis lupus familiaris; design: dose 2 mg/kg, route oral; details: in vivo
Measured endpoint: half-life

Tell me its half-life given COC(=O)N1CCC(CN2CCC(CNC(=O)c3cccc4[nH]c(C(C)C)nc34)CC2)CC1 as the entry.
3.5 h

* * *

biological target: 5-hydroxytryptamine receptor 4 (Homo sapiens, UniProt Q13639); assay: Agonist activity at human recombinant 5HT4 receptor assessed as cAMP accumulation
Sequence (Q13639 whole entry): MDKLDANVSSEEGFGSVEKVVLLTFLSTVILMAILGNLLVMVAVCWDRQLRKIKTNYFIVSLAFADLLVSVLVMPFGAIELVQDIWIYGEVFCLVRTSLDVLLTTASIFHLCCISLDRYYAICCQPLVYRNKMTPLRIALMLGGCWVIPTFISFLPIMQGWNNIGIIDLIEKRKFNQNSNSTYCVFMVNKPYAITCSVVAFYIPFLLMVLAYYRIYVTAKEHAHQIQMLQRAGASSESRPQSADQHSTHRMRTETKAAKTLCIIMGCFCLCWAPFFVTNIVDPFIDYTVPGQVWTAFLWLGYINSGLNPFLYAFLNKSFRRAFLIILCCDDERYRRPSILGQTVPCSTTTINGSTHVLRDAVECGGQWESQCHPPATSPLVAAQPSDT
Measured endpoint: pEC50
Answers are plain numbers, as −log10 of the molar value.

Some solved entries appear below for comparison.
Compound | pEC50
CC(C)c1nc2cccc(C(=O)NCC3CCN(CC(O)CN(C)S(C)(=O)=O)CC3)c2[nH]1 (centres undefined) | 9.40
CS(=O)(=O)N1CCN(CC(O)CN2CCC(NC(=O)c3cccc4[nH]cnc34)CC2)CC1 (centres undefined) | 6.20
CC(=O)N1CCC(CN2CCC(CNC(=O)c3cccc4[nH]c(C(C)C)nc34)CC2)CC1 | 8.80
CC(=O)N(C)CC(O)CN1CCC(CNC(=O)c2cccc3nc(C(C)C)[nH]c23)CC1 (centres undefined) | 8.80
CC(F)(F)c1nc2cccc(C(=O)NCC3CCN(CC(O)CN4CCN(S(C)(=O)=O)CC4)CC3)c2[nH]1 (centres undefined) | 9.10
CCc1nc2c(C(=O)NCC3CCN(CC(O)CN4CCN(S(C)(=O)=O)CC4)CC3)cccc2[nH]1 (centres undefined) | 9.00
COC(=O)N1CCN(CCN2CCC(CNC(=O)c3cccc4[nH]c(C(C)C)nc34)CC2)CC1 | 8.80
CC(C)c1nc2c(C(=O)NCC3CCN(CC4CCN(S(C)(=O)=O)CC4)CC3)cccc2[nH]1 | 9.00

// moving on: another record for pEC50
Tell me its pEC50 given COC(=O)N(C)CC(O)CN1CCC(CNC(=O)c2cccc3nc(C(C)C)[nH]c23)CC1 (centres undefined) as the entry.
8.70
